# Tested on: UO-31
# ASSAY: NCI tumour cell line growth inhibition, 48 h
Activity calls are given as the source filed them. No stated cut-off is given here; in the data, active = GI50 up to about 1.1 µM and inactive = higher.
Measured GI50 by item
READOUT TYPE: GI50

INSERT INTO results (compound, tested_system, recorded_value) VALUES
  ('COc1ccc(-c2c(-c3ccccc3)c(C)c3ccccn23)cc1', 'UO-31', '> 100 µM (inactive)'),
  ('COc1cc(/C=C2/CCCc3ccccc3C2=O)cc(OC)c1OC', 'UO-31', '14.6 µM (inactive)'),
  ('C[C@H]1/C(=C/C(=O)OCCN(C)C)CC[C@H]2[C@H]1C(=O)C[C@H]1C(C)(C)[C@@H](O)CC[C@]21C', 'UO-31', '> 100 µM (inactive)'),
  ('CN1CCn2c(Br)ccc2C1=O', 'UO-31', '> 100 µM (inactive)'),
  ('O=C(O)/C(=C/C=C/c1ccccc1)c1csc(-c2nc(/C(=C\C=C\c3ccccc3)C(=O)O)cs2)n1', 'UO-31', '18.5 µM (inactive)'),
  ('CCOC(=O)c1ccc(-n2nnc(C(N)=O)c2O)cc1', 'UO-31', '> 100 µM (inactive)'),
  ('COc1ccc(C(=O)C(C(=O)C(=O)Nc2ccc(Cl)c(Cl)c2)c2ccc(OC)cc2)cc1 (stereo unspecified)', 'UO-31', '> 100 µM (inactive)'),
  ('CC(=O)OCC1OC(c2nnc(C)o2)=CC(OC(C)=O)C1OC(C)=O (stereo unspecified)', 'UO-31', '> 100 µM (inactive)'),
  ('c1ncc(C23C4C5C6C4C2C6C53)[nH]1 (stereo unspecified)', 'UO-31', '> 100 µM (inactive)'),
  ('CC(C)(C)C1=CC(=C(c2ccc(-c3c4nc(c(-c5ccc(C(=C6C=C(C(C)(C)C)C(=O)C(C(C)(C)C)=C6)c6cc(C(C)(C)C)c(O)c(C(C)(C)C)c6)cc5)c5ccc([nH]5)c(-c5ccc(C(=C6C=C(C(C)(C)C)C(=O)C(C(C)(C)C)=C6)c6cc(C(C)(C)C)c(O)c(C(C)(C)C)c6)cc5)c5nc(c(-c6ccc(C(=C7C=C(C(C)(C)C)C(=O)C(C(C)(C)C)=C7)c7cc(C(C)(C)C)c(O)c(C(C)(C)C)c7)cc6)c6ccc3[nH]6)C=C5)C=C4)cc2)c2cc(C(C)(C)C)c(O)c(C(C)(C)C)c2)C=C(C(C)(C)C)C1=O', 'UO-31', '> 100 µM (inactive)'),
  ('CN(C)CCCn1c(-c2ccc(Br)cc2)cs/c1=N\c1ccccc1', 'UO-31', '10.4 µM (inactive)'),
  ('C/C(Nc1ccc(F)cc1)=C1/CCOC1=O', 'UO-31', '92.3 µM (inactive)'),
  ('CCOC(=O)Cn1c(C)nc2nn(Cc3ccccc3)cc2c1=O', 'UO-31', '> 100 µM (inactive)'),
  ('CCOC(CI)O[C@@H]1C=C[C@H](OC(C)=O)C1 (stereo partly specified)', 'UO-31', '> 100 µM (inactive)'),
  ('C=C(/C=C/C=C(/CCC=C(C)C)COC(C)=O)[C@@H]1CC[C@]2([C@H](CCCO)/C(=C(/C)C=O)CC[C@]2(C)O)[C@@H]1O', 'UO-31', '12.7 µM (inactive)'),
  ('O=C(NC(Cc1c[nH]c2ccccc12)C(=O)Nc1ccc(Br)cc1)OCc1ccccc1 (stereo unspecified)', 'UO-31', '9.1 µM (inactive)');
